Target: feline FcRn complex (FcRn-α subunit and β-microglobulin), biotin labeled (feline)
Experiment: SPR, pH 6
pKd: −log10 of the molar value.
RECORDED_METRIC: pKd

- feline IgG1a D399V (antibody, part only; not given: Variable domains, not shown: another chain or arm of the molecule) constant: ASTTAPSVFPLAPSCGTTSGATVALACLVLGYFPEPVTVSWNSGALTSGVHTFPAVLQASGLYSLSSMVTVPSSRWLSDTFTCNVAHPPSNTKVDKTVRKTDHPPGPKPCDCPKCPPPEMLGGPSIFIFPPKPKDTLSISRTPEVTCLVVDLGPDDSDVQITWFVDNTQVYTAKTSPREEQFNSTYRVVSVLPILHQDWLKGKEFKCKVNSKSLPSPIERTISKAKGQPHEPQVYVLPPAQEELSRNKVSVTCLIKSFHPPDIAVEWEITGQPEPENNYRTTPPQLVSDGTYFVYSKLSVDRSHWQRGNTYTCSVSHEALHSHHTQKSLTQSPGK: 8.08
- feline IgG1a S428Y/L314K (antibody, part only; not given: Variable domains, not shown: another chain or arm of the molecule) constant: ASTTAPSVFPLAPSCGTTSGATVALACLVLGYFPEPVTVSWNSGALTSGVHTFPAVLQASGLYSLSSMVTVPSSRWLSDTFTCNVAHPPSNTKVDKTVRKTDHPPGPKPCDCPKCPPPEMLGGPSIFIFPPKPKDTLSISRTPEVTCLVVDLGPDDSDVQITWFVDNTQVYTAKTSPREEQFNSTYRVVSVLPILHQDWKKGKEFKCKVNSKSLPSPIERTISKAKGQPHEPQVYVLPPAQEELSRNKVSVTCLIKSFHPPDIAVEWEITGQPEPENNYRTTPPQLDSDGTYFVYSKLSVDRSHWQRGNTYTCSVYHEALHSHHTQKSLTQSPGK: 8.12
- feline IgG1a S434F (antibody, part only; not given: Variable domains, not shown: another chain or arm of the molecule) constant: ASTTAPSVFPLAPSCGTTSGATVALACLVLGYFPEPVTVSWNSGALTSGVHTFPAVLQASGLYSLSSMVTVPSSRWLSDTFTCNVAHPPSNTKVDKTVRKTDHPPGPKPCDCPKCPPPEMLGGPSIFIFPPKPKDTLSISRTPEVTCLVVDLGPDDSDVQITWFVDNTQVYTAKTSPREEQFNSTYRVVSVLPILHQDWLKGKEFKCKVNSKSLPSPIERTISKAKGQPHEPQVYVLPPAQEELSRNKVSVTCLIKSFHPPDIAVEWEITGQPEPENNYRTTPPQLDSDGTYFVYSKLSVDRSHWQRGNTYTCSVSHEALHFHHTQKSLTQSPGK: 9.13
- feline IgG1a S254C (antibody, part only; not given: Variable domains, not shown: another chain or arm of the molecule) constant: ASTTAPSVFPLAPSCGTTSGATVALACLVLGYFPEPVTVSWNSGALTSGVHTFPAVLQASGLYSLSSMVTVPSSRWLSDTFTCNVAHPPSNTKVDKTVRKTDHPPGPKPCDCPKCPPPEMLGGPSIFIFPPKPKDTLSICRTPEVTCLVVDLGPDDSDVQITWFVDNTQVYTAKTSPREEQFNSTYRVVSVLPILHQDWLKGKEFKCKVNSKSLPSPIERTISKAKGQPHEPQVYVLPPAQEELSRNKVSVTCLIKSFHPPDIAVEWEITGQPEPENNYRTTPPQLDSDGTYFVYSKLSVDRSHWQRGNTYTCSVSHEALHSHHTQKSLTQSPGK: 7.36
